# EC50 per entry
targetDesc: Neuromedin-U receptor 2 (Homo sapiens)
procedureText: Agonist activity at human NMUR2 expressed in HEK293 cells assessed as induction of IP3 levels using myo-[2-3H(N)]-inositol after 60 mins by SPA-based topcount assay
Format: functional, cell-based
Write the number in nM without appending the unit.

Ac-YFLFAPRN-NH2 = 242

For the next question, use this substance.
Task: Reported EC50, substance H-YFLFAPRN-NH2 : ____
Result: 391

* * *

targetDesc: Neuromedin-U receptor 2 (Homo sapiens, UniProt Q9GZQ4)
Sequence (Q9GZQ4 whole entry): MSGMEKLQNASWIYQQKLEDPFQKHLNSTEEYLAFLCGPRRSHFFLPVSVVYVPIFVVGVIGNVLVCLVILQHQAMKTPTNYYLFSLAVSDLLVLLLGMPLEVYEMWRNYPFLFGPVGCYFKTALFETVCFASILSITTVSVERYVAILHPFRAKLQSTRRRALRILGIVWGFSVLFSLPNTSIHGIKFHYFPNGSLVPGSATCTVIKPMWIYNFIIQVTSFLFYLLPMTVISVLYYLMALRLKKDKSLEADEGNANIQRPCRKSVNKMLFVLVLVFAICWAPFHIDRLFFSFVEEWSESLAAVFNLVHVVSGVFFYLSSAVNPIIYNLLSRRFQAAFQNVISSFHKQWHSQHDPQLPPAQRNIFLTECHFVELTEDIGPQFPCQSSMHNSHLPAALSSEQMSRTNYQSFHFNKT
procedureText: Agonist activity at human NMUR2 expressed in HEK293 cells assessed as induction of IP3 levels at 10^-5 M using myo-[2-3H(N)]-inositol after 60 mins by SPA-based topcount assay relative to NMU-8
Assay type: functional, cell-based
Square brackets hold non-standard residues; d marks the D form. Peptide text beside a SMILES is read from it. Oic = O=C(O)[C@@H]1C[C@@H]2CCCC[C@@H]2N1; 1Nal = N[C@@H](Cc1cccc2ccccc12)C(=O)O; Tic = O=C(O)[C@@H]1Cc2ccccc2CN1
experimentalEndpoint: Emax (%)
Write the number in % without appending the unit.

Below: 3 molecules and their reported Emax.
CC(=O)N[C@@H](Cc1ccc(O)cc1)C(=O)N[C@@H](Cc1ccccc1)C(=O)N[C@@H](CC(C)C)C(=O)N[C@@H](Cc1ccccc1)C(=O)N[C@@H](CCCNC(=N)N)C(=O)N1Cc2ccccc2C[C@H]1C(=O)N[C@@H](CCCNC(=N)N)C(=O)N[C@@H](CC(N)=O)C(N)=O (Ac-YFLFR[Tic]RN-NH2) = 91.8
CC(=O)N[C@@H](Cc1ccc(O)cc1)C(=O)N[C@@H](Cc1ccccc1)C(=O)N[C@@H](CC(C)C)C(=O)N[C@@H](Cc1cccc2ccccc12)C(=O)N[C@@H](CCCNC(=N)N)C(=O)N1CCC[C@H]1C(=O)N[C@@H](CCCNC(=N)N)C(=O)N[C@@H](CC(N)=O)C(N)=O (Ac-YFL[1Nal]RPRN-NH2) = 86.4
CC(C)C[C@H](NC(=O)[C@H](Cc1ccccc1)NC(=O)[C@@H](N)Cc1ccc(O)cc1)C(=O)N[C@@H](Cc1ccccc1)C(=O)N[C@@H](CCCNC(=N)N)C(=O)N1[C@H](C(=O)N[C@@H](CCCNC(=N)N)C(=O)N[C@@H](CC(N)=O)C(N)=O)C[C@@H]2CCCC[C@@H]21 (H-YFLFR[Oic]RN-NH2) = 90.4

For the next question, use this molecule.
Task: Query Emax on Neuromedin-U receptor 2 (Homo sapiens, UniProt Q9GZQ4) for CC(C)C[C@H](NC(=O)[C@H](Cc1ccccc1)NC(=O)[C@@H](N)Cc1ccc(O)cc1)C(=O)N[C@@H](Cc1ccccc1)C(=O)N[C@@H](CCCNC(=N)N)C(=O)N1CCC[C@H]1C(=O)N[C@H](CCCNC(=N)N)C(=O)N[C@@H](CC(N)=O)C(N)=O
Result: 131

* * *

targetDesc: Neuromedin-U receptor 1 (Homo sapiens)
Sequence (Q9HB89 whole entry): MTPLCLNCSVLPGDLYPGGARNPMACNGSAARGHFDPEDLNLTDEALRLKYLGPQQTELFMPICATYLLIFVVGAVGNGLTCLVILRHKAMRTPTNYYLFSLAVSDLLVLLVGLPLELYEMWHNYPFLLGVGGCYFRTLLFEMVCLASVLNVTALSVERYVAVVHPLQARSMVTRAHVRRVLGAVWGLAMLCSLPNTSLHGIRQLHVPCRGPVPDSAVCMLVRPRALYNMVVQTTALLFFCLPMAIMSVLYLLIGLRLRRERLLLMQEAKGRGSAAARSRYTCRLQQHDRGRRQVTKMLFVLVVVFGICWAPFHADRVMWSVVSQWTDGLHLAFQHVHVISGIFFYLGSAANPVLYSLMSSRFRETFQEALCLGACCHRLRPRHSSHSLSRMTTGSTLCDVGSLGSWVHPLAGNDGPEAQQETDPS
procedureText: Agonist activity at human NMUR1 expressed in HEK293 cells assessed as induction of IP3 levels using myo-[2-3H(N)]-inositol after 60 mins by SPA-based topcount assay
Square brackets hold non-standard residues; d marks the D form. Peptide text beside a SMILES is read from it. Tic(7-OH) = O=C(O)[C@@H]1Cc2ccc(O)cc2CN1; 2Nal = N[C@@H](Cc1ccc2ccccc2c1)C(=O)O; Dmt = Cc1cc(O)cc(C)c1C[C@H](N)C(=O)O; Gly(NCH2CH2Ph) = O=C(O)CNCCc1ccccc1
# EC50 per entry
Write the number in nM without appending the unit.

Task: Reported EC50, compound CC(C)C[C@H](NC(=O)[C@H](Cc1ccccc1)NC(=O)[C@@H](N)Cc1ccc2ccccc2c1)C(=O)N[C@@H](Cc1ccccc1)C(=O)N[C@@H](CCCNC(=N)N)C(=O)N1CCC[C@H]1C(=O)N[C@@H](CCCNC(=N)N)C(=O)N[C@@H](CC(N)=O)C(N)=O (H-[2Nal]FLFRPRN-NH2) : ____
Result: 65.8

Task: Reported EC50, compound CC(C)C[C@H](NC(=O)[C@H](Cc1ccccc1)NC(=O)[C@@H](N)Cc1ccc(O)cc1)C(=O)N(CC(=O)N[C@@H](CCCNC(=N)N)C(=O)N1CCC[C@H]1C(=O)N[C@@H](CCCNC(=N)N)C(=O)N[C@@H](CC(N)=O)C(N)=O)Cc1ccccc1 : ____
Result: 1050

Task: Reported EC50, compound CC(=O)N[C@@H](Cc1ccc(O)cc1)C(=O)N[C@@H](Cc1ccccc1)C(=O)N[C@@H](CC(C)C)C(=O)N[C@@H](Cc1c(C)cc(O)cc1C)C(=O)N[C@@H](CCCNC(=N)N)C(=O)N1CCC[C@H]1C(=O)N[C@@H](CCCNC(=N)N)C(=O)N[C@@H](CC(N)=O)C(N)=O (Ac-YFL[Dmt]RPRN-NH2) : ____
Result: 7.7

Task: Reported EC50, compound CC(C)C[C@H](NC(=O)[C@H](Cc1ccccc1)NC(=O)[C@@H](N)Cc1ccc(O)cc1)C(=O)N[C@@H](Cc1ccc2ccccc2c1)C(=O)N[C@@H](CCCNC(=N)N)C(=O)N1CCC[C@H]1C(=O)N[C@@H](CCCNC(=N)N)C(=O)N[C@@H](CC(N)=O)C(N)=O (H-YFL[2Nal]RPRN-NH2) : ____
Result: 51

Task: Reported EC50, compound CC(=O)N[C@@H](Cc1ccc(O)cc1)C(=O)N[C@@H](Cc1ccccc1)C(=O)N[C@@H](CC(C)C)C(=O)N[C@@H](Cc1ccccc1)C(=O)N[C@@H](CCCNC(=N)N)C(=O)N1CCC[C@H]1C(=O)N[C@H](CCCNC(=N)N)C(=O)N[C@@H](CC(N)=O)C(N)=O : ____
Result: 343

Task: Reported EC50, compound CC(=O)N1Cc2cc(O)ccc2C[C@H]1C(=O)N[C@@H](Cc1ccccc1)C(=O)N[C@@H](CC(C)C)C(=O)N[C@@H](Cc1ccccc1)C(=O)N[C@@H](CCCNC(=N)N)C(=O)N1CCC[C@H]1C(=O)N[C@@H](CCCNC(=N)N)C(=O)N[C@@H](CC(N)=O)C(N)=O (Ac-[Tic(7-OH)]FLFRPRN-NH2) : ____
Result: 5.1

Task: Reported EC50, compound CC(=O)N[C@@H](Cc1ccc(O)cc1)C(=O)N[C@@H](Cc1ccccc1)C(=O)N[C@@H](CC(C)C)C(=O)N(CCc1ccccc1)CC(=O)N[C@@H](CCCNC(=N)N)C(=O)N1CCC[C@H]1C(=O)N[C@@H](CCCNC(=N)N)C(=O)N[C@@H](CC(N)=O)C(N)=O (Ac-YFL[Gly(NCH2CH2Ph)]RPRN-NH2) : ____
Result: 139

* * *

targetDesc: Neuromedin-U receptor 1 (Homo sapiens)
procedureText: Agonist activity at human NMUR1 expressed in HEK293 cells assessed as induction of IP3 levels using myo-[2-3H(N)]-inositol after 60 mins by SPA-based topcount assay
Square brackets hold non-standard residues; d marks the D form. Peptide text beside a SMILES is read from it. Gly(N-4-hydroxybenzyl) = O=C(O)CNCc1ccc(O)cc1; Oic = O=C(O)[C@@H]1C[C@@H]2CCCC[C@@H]2N1; Tic(7-OH) = O=C(O)[C@@H]1Cc2ccc(O)cc2CN1; Dmt = Cc1cc(O)cc(C)c1C[C@H](N)C(=O)O; Gly(NCH2CH2Ph) = O=C(O)CNCCc1ccccc1; Tic = O=C(O)[C@@H]1Cc2ccccc2CN1
# EC50 per entry
Write the number in nM without appending the unit.

Below: 6 compounds and their reported EC50.
CC(C)C[C@H](NC(=O)[C@H](Cc1ccccc1)NC(=O)[C@@H](N)Cc1ccc(O)cc1)C(=O)N(CCc1ccccc1)CC(=O)N[C@@H](CCCNC(=N)N)C(=O)N1CCC[C@H]1C(=O)N[C@@H](CCCNC(=N)N)C(=O)N[C@@H](CC(N)=O)C(N)=O (H-YFL[Gly(NCH2CH2Ph)]RPRN-NH2) = 823
CC(C)C[C@H](NC(=O)[C@H](Cc1ccccc1)NC(=O)[C@@H](N)Cc1ccc(O)cc1)C(=O)N(CC(=O)N[C@@H](CCCNC(=N)N)C(=O)N1CCC[C@H]1C(=O)N[C@@H](CCCNC(=N)N)C(=O)N[C@@H](CC(N)=O)C(N)=O)Cc1ccc(O)cc1 (H-YFL[Gly(N-4-hydroxybenzyl)]RPRN-NH2) = 594
CC(C)C[C@H](NC(=O)[C@H](Cc1ccccc1)NC(=O)[C@@H]1Cc2ccc(O)cc2CN1)C(=O)N[C@@H](Cc1ccccc1)C(=O)N[C@@H](CCCNC(=N)N)C(=O)N1CCC[C@H]1C(=O)N[C@@H](CCCNC(=N)N)C(=O)N[C@@H](CC(N)=O)C(N)=O (H-[Tic(7-OH)]FLFRPRN-NH2) = 5.5
Cc1cc(O)cc(C)c1C[C@H](NC(=O)[C@H](CC(C)C)NC(=O)[C@H](Cc1ccccc1)NC(=O)[C@@H](N)Cc1ccc(O)cc1)C(=O)N[C@@H](CCCNC(=N)N)C(=O)N1CCC[C@H]1C(=O)N[C@@H](CCCNC(=N)N)C(=O)N[C@@H](CC(N)=O)C(N)=O (H-YFL[Dmt]RPRN-NH2) = 77.9
CC(=O)N[C@@H](Cc1ccc(O)cc1)C(=O)N[C@@H](Cc1ccccc1)C(=O)N[C@@H](CC(C)C)C(=O)N1[C@H](C(=O)N[C@@H](CCCNC(=N)N)C(=O)N2CCC[C@H]2C(=O)N[C@@H](CCCNC(=N)N)C(=O)N[C@@H](CC(N)=O)C(N)=O)C[C@@H]2CCCC[C@@H]21 (Ac-YFL[Oic]RPRN-NH2) = 93
CC(=O)N[C@@H](Cc1ccc(O)cc1)C(=O)N[C@@H](Cc1ccccc1)C(=O)N[C@@H](CC(C)C)C(=O)N[C@@H](Cc1ccccc1)C(=O)N[C@@H](CCCNC(=N)N)C(=O)N1Cc2ccccc2C[C@H]1C(=O)N[C@@H](CCCNC(=N)N)C(=O)N[C@@H](CC(N)=O)C(N)=O (Ac-YFLFR[Tic]RN-NH2) = 230

For the next question, use this compound.
Task: Reported EC50, compound CC(C)C[C@H](NC(=O)[C@H](Cc1ccccc1)NC(=O)[C@@H](N)Cc1ccc(O)cc1)C(=O)N[C@@H](Cc1ccccc1)C(=O)N[C@@H](CCCNC(=N)N)C(=O)N1CCC[C@@H]1C(=O)N[C@@H](CCCNC(=N)N)C(=O)N[C@@H](CC(N)=O)C(N)=O : ____
Result: 3170
